tested on: Histone-lysine N-methyltransferase EHMT2 (Homo sapiens)
assay overview: qHTS Assay for Inhibitors of Histone Lysine Methyltransferase G9a; also: nearly all actives have a fitted effect of over 75% in size
condition details: G9a H3K9 monomethylation, AlphaScreen, 2 h; series mostly up to 59 µM
The whole screen tested about 350,000 compounds, of which about 31,000 (8.9%) were called active. Inconclusive results (about 15%) are left out. Calls follow the shape of the dose curve; as a rule, active = well fitted inhibition curve with a large enough effect; inconclusive = small, poorly fitted or top-dose-only effect; inactive = no such curve, though single readings can be large or run the other way. What follows is part of a selection rich in actives, with near analogues and random picks from the rest.
Please reply with one of these outcomes: TRUE = active, FALSE = inactive

The following molecules have reported results that may help.
Cc1ccc(-n2c(SCC(=O)c3ccccc3)nc3c([nH]c4ccccc43)c2=O)cc1 :: FALSE
O=c1o[nH]c(-c2ccccc2)c1N=Nc1c(F)cccc1Cl :: TRUE
CC(=N\NC(=O)c1cc(Br)ccc1O)/C(=N/O)C(=O)Nc1ccccc1 :: FALSE
CCCn1c(=N)c(C(=O)NCc2ccccc2)cc2c(=O)n3cccc(C)c3nc21 :: FALSE
Cc1ccc(C(=O)N2CCN(C(=O)N3CCOCC3)CC2)cc1 :: FALSE
Nc1cc(N)nc(SCC(=O)Nc2cccc(S(=O)(=O)N3CCCCC3)c2)n1 :: FALSE
O=C(CSc1nnc(-c2ccc(NS(=O)(=O)c3ccccc3)cc2)o1)NCC1CCCO1 (configuration not stated) :: FALSE
O=C(N1CCOCC1)N1CCOCC1 :: FALSE
Cc1ccc(-c2nn3c(=O)cc(CN4CCN(C(=O)Nc5cccc(C(F)(F)F)c5)CC4)nc3s2)cc1 :: FALSE
Oc1c(C=Nc2cccc3nsnc23)ccc2ccccc12 :: TRUE

Short answer needed: outcome of this test for O=C(Nc1nnc(-c2ccccc2F)s1)c1ccccc1F ?
FALSE

---

tested on: Histone-lysine N-methyltransferase EHMT2 (Homo sapiens) (UniProt Q96KQ7)
Sequence (Q96KQ7 913-1193 limits assumed): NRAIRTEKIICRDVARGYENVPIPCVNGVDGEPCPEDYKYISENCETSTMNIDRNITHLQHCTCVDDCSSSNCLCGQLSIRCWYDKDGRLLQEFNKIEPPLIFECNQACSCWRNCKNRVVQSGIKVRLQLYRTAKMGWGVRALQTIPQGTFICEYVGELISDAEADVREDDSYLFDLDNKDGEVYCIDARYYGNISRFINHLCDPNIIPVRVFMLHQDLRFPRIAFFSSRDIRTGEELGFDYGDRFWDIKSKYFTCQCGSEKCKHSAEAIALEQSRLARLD
assay overview: qHTS Assay for Inhibitors of Histone Lysine Methyltransferase G9a; also: nearly all actives have a fitted effect of over 75% in size
condition details: G9a H3K9 monomethylation, AlphaScreen, 2 h; series mostly up to 59 µM
About 31,000 (8.9%) of roughly 350,000 compounds were called active. Another 15% or so got no clear call; they are omitted. The call rests on the fitted dose curve; in most records, active means well fitted inhibition curve with a large enough effect; inconclusive means small, poorly fitted or top-dose-only effect; inactive means no such curve, though single readings can be large or run the other way. Many of the other results were omitted from the sample, so actives are more common in it than they were.
Just give me one of these, please: Y (active), N (inactive)

Write down the call the test reported for this compound. Item: CN(C)c1ccc(/C=N/NC(=O)C(O)c2ccc(Br)cc2)cc1 (configuration not stated)
N

Hey, what did the test say about CC(=O)NC(CC(=O)O)c1ccc(F)cc1 (configuration not stated) ?
N

Answer briefly: the call reported for CC(=O)c1ccc(Cc2ncc(C(F)(F)F)cc2Cl)s1 in this assay.
N

---

tested on: Histone-lysine N-methyltransferase EHMT2 (Homo sapiens) (UniProt Q96KQ7)
assay overview: qHTS Assay for Inhibitors of Histone Lysine Methyltransferase G9a; also: nearly all actives have a fitted effect of over 75% in size
condition details: G9a H3K9 monomethylation, AlphaScreen, 2 h; series mostly up to 59 µM
Out of some 350,000 compounds screened, about 31,000 (8.9%) were called active. Roughly 15% stayed inconclusive and do not appear here. The call rests on the fitted dose curve; in most records, active means well fitted inhibition curve with a large enough effect; inconclusive means small, poorly fitted or top-dose-only effect; inactive means no such curve, though single readings can be large or run the other way. The sample holds actives, similar compounds and a random draw of the others, so the mix is not that of the screen.
Would you mind answering with one of these outcomes? YES = active, NO = inactive

Use the examples below as a reference point.
Oc1ccccc1-c1nc2ccc(Cl)cn2c1Nc1ccc2c(c1)OCCO2 :: NO
Cc1ccc(S(=O)(=O)NCC(=O)Nc2ccc3c(c2)OCCO3)cc1 :: NO
O=C(NCCc1ccccc1)C1CCN(S(=O)(=O)c2ccc(Br)s2)CC1 :: NO
O=S(=O)([N-]c1nc2ccccc2nc1-[n+]1ccc(Cc2ccccc2)cc1)c1ccc(Br)s1 :: YES
Cc1nc(Nc2ccc3c(c2)OCCO3)c2nnn(Cc3ccccc3Cl)c2n1 :: NO

Query: recorded result category for COc1ccccc1CNC(=O)C(=O)NCC(c1cccs1)S(=O)(=O)c1cccs1 (stereo not given) in this test
NO

---

tested on: Histone-lysine N-methyltransferase EHMT2 (Homo sapiens)
assay overview: qHTS Assay for Inhibitors of Histone Lysine Methyltransferase G9a; also: nearly all actives have a fitted effect of over 75% in size
condition details: G9a H3K9 monomethylation, AlphaScreen, 2 h; series mostly up to 59 µM
In all, about 350,000 compounds went through this assay and about 31,000 (8.9%) were called active. Another 15% or so got no clear call; they are omitted. The call rests on the fitted dose curve; in most records, active means well fitted inhibition curve with a large enough effect; inconclusive means small, poorly fitted or top-dose-only effect; inactive means no such curve, though single readings can be large or run the other way. This is one part of a sample in which actives are shown more often than they occur.
The reply should be one of these categories: active, inactive

CCc1ccc(NS(=O)(=O)c2ccc3[nH]cc(C(=O)NCCc4cccc(C)c4)c(=O)c3c2)cc1 :: inactive

Consider the record given below.
Could you kindly confirm the outcome this assay logged for COc1ccc(NC(=O)CSc2nc(N)c(-c3ccccc3)c(=O)[nH]2)cc1 ?
inactive

---

Could you please report measured activity, negative = inhibition for the items listed next?
tested on: Histone-lysine N-methyltransferase EHMT2 (Homo sapiens) (UniProt Q96KQ7)
assay overview: qHTS Assay for Inhibitors of Histone Lysine Methyltransferase G9a; also: nearly all actives have a fitted effect of over 75% in size; as to activity, negative = inhibition: % is scaled to controls: 0 for no effect and ±100 for the full control effect
condition details: G9a H3K9 monomethylation, AlphaScreen, 2 h; series mostly up to 59 µM
About 31,000 (8.9%) of roughly 350,000 compounds were called active. Inconclusive results (about 15%) are left out. The full list was thinned out, with actives kept by preference.

Below is a list of molecules. For each, state its recorded activity, negative = inhibition.
1. CSc1ccc(S(=O)(=O)NCc2ccc(Cl)cc2)cc1
2. O=C(/C=C(O)/C=C/c1ccc(O)cc1)/C=C/c1ccc(O)cc1
3. COc1ccc(OCc2ccc(-c3nc4ccccc4c(=O)n3N)o2)cc1
4. COc1ccccc1C1=CC(=O)C[C@H](c2ccc(F)cc2)C1

1. 15.9% [at 12.7 µM] (inactive)
2. 1.18% [at 0.501 µM] (inactive)
3. 14.4% [at 2.33 µM] (inactive)
4. -10.3% [at 0.501 µM] (inactive)

Please supply activity, negative = inhibition for each of the following items, keeping them in order.
1. CCN(CC(=O)Nc1ccccc1C(F)(F)F)C(=O)CSCc1c(C)noc1C
2. O=C(CN1CCOCC1)Nc1ccccc1
3. O=C(c1cc(COc2ccc(F)c(F)c2)on1)N1CCOCC1
4. CCCCn1nc(C(=O)Nc2cccc(C(=O)NC3CC3)c2)c2ccccc2c1=O
5. COc1ccccc1-n1nnnc1SCC(=O)NC(=O)Cc1ccccc1
6. CN(C)CCOC(=O)C(c1ccccc1)C1(O)CCCC1 (stereo unspecified)
7. CC(Sc1nnc(COc2ccccc2)n1-c1ccccc1)C(=O)O (stereo unspecified)

9.18% [at 0.501 µM] (inactive)
41.4% [at 12.7 µM] (inactive)
-4.01% [at 0.501 µM] (inactive)
5.39% [at 2.33 µM] (inactive)
17.7% [at 2.33 µM] (inactive)
4.21% [at 2.33 µM] (inactive)
9.68% [at 0.501 µM] (inactive)

---

tested on: Histone-lysine N-methyltransferase EHMT2 (Homo sapiens) (UniProt Q96KQ7)
assay overview: qHTS Assay for Inhibitors of Histone Lysine Methyltransferase G9a; also: nearly all actives have a fitted effect of over 75% in size
condition details: G9a H3K9 monomethylation, AlphaScreen, 2 h; series mostly up to 59 µM
Out of some 350,000 compounds screened, about 31,000 (8.9%) were called active. Another 15% or so got no clear call; they are omitted. Calls follow the shape of the dose curve; as a rule, active = well fitted inhibition curve with a large enough effect; inconclusive = small, poorly fitted or top-dose-only effect; inactive = no such curve, though single readings can be large or run the other way. The full list was thinned out, with actives kept by preference.
Classes to choose from: true = active, false = inactive

Some solved entries appear below for comparison.
COc1ccc(NC(=O)Cn2c(=O)cc(C)c3c(C)nn(-c4cccc(Cl)c4C)c32)cc1OC :: false
Cc1cccc(Cn2c(SCCO)nc3c2c(=O)n(C)c(=O)n3C)c1 :: false
COc1ccc(C(=O)CCc2ccccc2O)c(OC)c1 :: false
CCc1nnc(NC(=O)c2c(O)c3c([nH]c2=O)CCCC3)s1 :: false
COc1ccc(/C=C2/C(=O)OCc3cc(OC)c(OC)cc32)c(OC)c1 :: false

// switching to the query compound
State the result this test recorded for O=C(COC(=O)Cc1c[nH]c2ccccc12)NCCc1ccccc1 .
false

---

tested on: Histone-lysine N-methyltransferase EHMT2 (Homo sapiens) (UniProt Q96KQ7)
assay overview: qHTS Assay for Inhibitors of Histone Lysine Methyltransferase G9a; also: nearly all actives have a fitted effect of over 75% in size; also: potency is read from the fitted curve at half-maximal effect
condition details: G9a H3K9 monomethylation, AlphaScreen, 2 h; series mostly up to 59 µM
Protocol: Methylated lysines, on the N-terminal tails of histone proteins serve as epigenetic markers to recruit factors that can then modify local chromatin structure to lead to functional consequences. […] Methylation of biotinylated-histone peptide is measured through specific antibody-based detection, in conjunction with streptavidin-coated donor and anti-IgG antibody-coated acceptor beads. […]
Screen size: about 350,000 compounds; about 31,000 (8.9%) were called active. About 15% were inconclusive and are not listed. Only a selection was taken, and actives are over-represented in it overall.
endpoint: Potency

Use these answered entries as a reference point.
O=C(NCC(c1ccc(Cl)cc1)N1CCOCC1)c1ccccc1F (stereo unspecified) :: inactive
CCOC(=O)c1c(NC(=O)CSc2nnc(CNc3ccc(C)cc3C)o2)sc(C)c1C :: inactive
Cc1nc2ccccc2c(=O)n1-c1ccc(F)c(NC(=O)c2cccs2)c1 :: inactive
CC(=O)Nc1c2c(nn1-c1cccc(C)c1)CSC2 :: inactive
Cc1nc2ccccc2c(C)c1C(=O)c1ccc(F)cc1 :: 50.1 µM (active)

Give Potency for each listed item.
1. COCC(C)NS(=O)(=O)c1ccc(N2CCCCS2(=O)=O)cc1 (stereo unspecified)
2. CN(Cc1nc2ccccc2s1)C(=O)c1ccc(F)cc1
3. N#C/C(=C\c1cccc(F)c1)c1nc(-c2cc3c(ccc4ccccc43)oc2=O)cs1
4. CCCCn1c(N)c(N(CC(C)C)C(=O)c2cccc(S(=O)(=O)N3CCN(C(C)=O)CC3)c2)c(=O)[nH]c1=O

["inactive", "inactive", "inactive", "inactive"]

Could you tell me Potency for each of these molecules? They are listed below.
1. CCCn1c2ccccc2c2cnn(CC(=O)N(C)c3ccccc3CC)c(=O)c21
2. Cc1csc(NC(=O)NC2(C(F)(F)F)Oc3ccccc3O2)n1
3. Cc1cccc(OCCCC(=O)Nc2sc3c(c2C(N)=O)CCC(C)C3)c1 (stereo unspecified)
4. Cc1n[nH]c(=O)c2c(NC(=O)CSc3ccccc3F)oc(C)c12

inactive
2 µM (active)
inactive
31.6 µM (active)
